Values compiled from ChEMBL document CHEMBL4619812.

Target: Nuclear receptor subfamily 1 group I member 2 (Homo sapiens)
Sequence (O75469 whole entry): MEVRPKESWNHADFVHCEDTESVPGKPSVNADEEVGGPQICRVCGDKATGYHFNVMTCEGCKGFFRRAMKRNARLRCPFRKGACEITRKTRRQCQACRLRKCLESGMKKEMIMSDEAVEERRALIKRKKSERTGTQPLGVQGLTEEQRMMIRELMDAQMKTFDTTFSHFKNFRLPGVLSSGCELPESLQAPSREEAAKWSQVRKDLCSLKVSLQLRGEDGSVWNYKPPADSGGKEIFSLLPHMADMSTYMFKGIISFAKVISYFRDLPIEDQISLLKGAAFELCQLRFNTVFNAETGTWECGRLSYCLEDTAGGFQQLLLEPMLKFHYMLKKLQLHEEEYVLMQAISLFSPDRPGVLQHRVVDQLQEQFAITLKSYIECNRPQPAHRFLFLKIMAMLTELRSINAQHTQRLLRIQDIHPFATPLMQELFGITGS
Experiment: Activation of PXR (unknown origin)
pEC50: −log10 of the molar value.
quantity-kind: pEC50

IN: Please report the measured pEC50 for C[C@H](C(=O)Nc1ccc(F)cc1)C12CC(NC(=O)c3ccc(F)c(F)c3)(C1)C2
OUT: < 4.52

* * *

Assay: Oral bioavailability in dog
Assay type: ADME, organism-based, Canis lupus familiaris
Conditions: in vivo
quantity-kind: bioavailability (%)
Express your answer in %, writing the number without its unit.

IN: Please report the measured bioavailability for C[C@H](C(=O)Nc1ccc(F)cc1)C12CC(NC(=O)c3ccc(F)c(F)c3)(C1)C2
OUT: 79
